biological target: c-Myc template DNA (c-myc quadruplex); assay: Quadruplex binding / stop assay (Taq polymerase arrest, capillary electrophoresis); conditions: read-out: S DATA; Table 1D, stop assay data
measure: IC50 (µM)

Look over these answered cases.
CN1CCCC1CCNC(=O)c1cn2c3c(c(N4CCNC(c5cccnc5)C4)c(F)cc3c1=O)Oc1cc3ccccc3cc1-2 (stereo not shown)	1.75
CN1CCN(CCCNC(=O)c2cn3c4c(c(N5CC6CCCNC6C5)c(F)cc4c2=O)Oc2cc4ccccc4cc2-3)CC1 (stereo not shown)	0.75

a: CN(C)CCCCNC(=O)c1cn2c3c(c(N4CCC(N)C4)c(F)cc3c1=O)Oc1ccccc1-2 (stereo not shown)
b: COc1ccc2c(CCNc3c(F)cc4c(=O)c(C(=O)NCCC5CCCN5C)cn5c4c3Oc3cc4ccccc4cc3-5)c[nH]c2c1 (stereo not shown)
Of the two listed items, which has the higher IC50? First: a Second: b Bench note: the answer is the label of the chosen record.
b
